# studySystem: Electric eel AChE (Electrophorus electricus)
# Construct: native commercial enzyme from Sigma, no further details
# Sequence (O42275 24-633): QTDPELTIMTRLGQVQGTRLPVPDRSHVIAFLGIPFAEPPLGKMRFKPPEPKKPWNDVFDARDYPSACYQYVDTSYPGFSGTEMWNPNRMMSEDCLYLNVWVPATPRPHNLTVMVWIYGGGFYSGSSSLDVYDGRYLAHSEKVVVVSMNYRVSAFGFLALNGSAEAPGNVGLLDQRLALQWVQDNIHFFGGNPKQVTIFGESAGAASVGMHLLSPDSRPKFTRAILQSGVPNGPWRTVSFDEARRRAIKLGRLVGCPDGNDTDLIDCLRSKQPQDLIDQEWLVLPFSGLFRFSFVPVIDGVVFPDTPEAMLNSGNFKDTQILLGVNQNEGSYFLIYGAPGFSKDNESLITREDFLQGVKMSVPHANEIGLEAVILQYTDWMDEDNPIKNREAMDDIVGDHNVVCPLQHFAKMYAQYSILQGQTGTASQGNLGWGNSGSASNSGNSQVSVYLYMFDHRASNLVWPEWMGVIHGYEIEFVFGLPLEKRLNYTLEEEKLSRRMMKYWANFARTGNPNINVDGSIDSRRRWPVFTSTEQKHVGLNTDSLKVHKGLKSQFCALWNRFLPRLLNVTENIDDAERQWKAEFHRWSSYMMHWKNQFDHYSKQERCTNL
# protocol: Ellman assay, […] nm
# Assay type: biochemical
# details: acetylthiocholine iodide substrate, phosphate buffer pH 8.0, 37 °C, 10 min preincubation; read-out: Electric eel AChE, IC50 nM
measurementType: log10 of IC50 (log10 of the value in nM)
Heads up: the numbers are on a log10 scale; they represent IC50 in nM.

These recorded examples may help you get a feel for the data.
1) CN1CCC=C(c2ccc(Cl)cc2)C1 [5d]    2.91
2) CN1CCC=C(c2ccc(-c3ccccc3)c(F)c2)C1 [5h]    2.07

Need log10 of IC50 of CN1CCC=C(c2cccc(Cl)c2F)C1 [5k] , thanks.
2.26

Need log10 of IC50 of CN1CCC=C(c2ccc(C#N)cc2)C1 [5b] , thanks.
1.81

Need log10 of IC50 of CCOc1cccc(C2=CCCN(C)C2)c1 [5j] , thanks.
3.09

Need log10 of IC50 of CN1CCC=C(c2ccc(Oc3ccccc3)cc2)C1 [5g] , thanks.
3.09

Need log10 of IC50 of CN1CCC=C(c2c(Cl)cccc2Cl)C1 [5f] , thanks.
2.83

Need log10 of IC50 of CN1CCC=C(c2ccc(C(F)(F)F)cc2)C1 [5a] , thanks.
1.69
